# assay-system: human TNF-R1/TNFα (Homo sapiens, UniProt P01375+P19438)
# Sequence (P01375 77-233 limits assumed): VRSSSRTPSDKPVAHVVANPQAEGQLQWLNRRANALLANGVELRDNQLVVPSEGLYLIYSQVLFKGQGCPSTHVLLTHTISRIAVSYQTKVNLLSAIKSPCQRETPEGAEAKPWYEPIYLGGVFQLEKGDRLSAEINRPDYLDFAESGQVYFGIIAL
# Sequence (P19438 30-211 limits assumed): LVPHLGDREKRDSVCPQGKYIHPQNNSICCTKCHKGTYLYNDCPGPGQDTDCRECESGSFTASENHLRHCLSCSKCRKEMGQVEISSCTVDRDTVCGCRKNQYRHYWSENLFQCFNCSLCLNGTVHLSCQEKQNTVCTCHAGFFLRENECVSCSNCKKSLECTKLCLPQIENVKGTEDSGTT
# experimental-protocol: Specificity test: human TNF-R1/TNFα binding inhibition assay
# test-settings: log of IC50, cell-free binding
Given measured Human TNFR1/TNFα log IC50, output yes if it is greater than or equal to -4 and no if not.

compound	assigned-category
O=C(Nc1ccc2c(O)c(N=Nc3ccc(N=Nc4ccc(S(=O)(=O)[O-])cc4)cc3S(=O)(=O)[O-])c(S(=O)(=O)[O-])cc2c1)Nc1ccc2c(O)c(N=Nc3ccc(N=Nc4ccc(S(=O)(=O)[O-])cc4)cc3S(=O)(=O)[O-])c(S(=O)(=O)[O-])cc2c1.[Na+].[Na+].[Na+].[Na+].[Na+].[Na+] [Direct red 80, direct red 80]	yes
Cc1ccc(S(=O)(=O)Oc2ccc(N=Nc3ccc(-c4ccc(N=Nc5c(O)ccc6cc(S(=O)(=O)[O-])cc(S(=O)(=O)[O-])c56)c(C)c4)cc3C)cc2)cc1.[Na+].[Na+] [Acid red 114, C.I. acid red 114]	no
O=C([O-])C1=NN(c2ccc(S(=O)(=O)[O-])cc2)C(=O)C1N=Nc1ccc(S(=O)(=O)[O-])cc1.[Na+].[Na+].[Na+] (stereo not shown) [Tartrazine (FD&C yellow 5), Tartrazine, reference compound]	yes
Cc1cc(S(=O)(=O)[O-])ccc1N=Nc1ccc(N=Nc2c(O)ccc3cccc(S(=O)(=O)[O-])c23)c(C)c1.[Na+].[Na+] [Crocein scarlet 7B, crocein scarlet 7B]	yes
O=C(Nc1ccc2c(O)c(N=Nc3ccc(N=Nc4ccc(S(=O)(=O)[O-])cc4)cc3)c(S(=O)(=O)[O-])cc2c1)c1ccccc1.[Na+].[Na+] [Direct red 81, direct red 81]	yes
COc1ccccc1NC(=O)C(N=Nc1ccc(-c2nc3ccc(C)c(S(=O)(=O)[O-])c3s2)cc1S(=O)(=O)[O-])C(C)=O.[Na+].[Na+] (stereo not shown) [Direct yellow 27, direct yellow 27]	no

---

Each record here notes measured Human CD40/CD154 log IC50.
# assay-system: human CD40/CD154 (Homo sapiens, UniProt P29965)
# Construct: CD154 (soluble human, FLAG-tagged, recombinant from Alexis Biochemicals; MW=18 kDa); purchased Alexis Biochemicals
# Sequence (P29965 113-261 limits assumed): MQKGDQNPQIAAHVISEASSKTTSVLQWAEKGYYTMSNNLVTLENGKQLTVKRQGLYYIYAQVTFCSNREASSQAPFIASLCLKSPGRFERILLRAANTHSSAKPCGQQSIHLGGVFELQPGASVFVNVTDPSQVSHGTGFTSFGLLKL
# experimental-protocol: Human CD40/CD154 binding inhibition assay (cell-free, plate-based)
# test-settings: log of IC50, cell-free binding

compound	Human CD40/CD154 log IC50
COc1ccccc1NC(=O)C(N=Nc1ccc(-c2nc3ccc(C)c(S(=O)(=O)[O-])c3s2)cc1S(=O)(=O)[O-])C(C)=O.[Na+].[Na+] (stereo not shown)	−5.72
Cc1ccc(S(=O)(=O)Oc2ccc(N=Nc3ccc(-c4ccc(N=Nc5c(O)ccc6cc(S(=O)(=O)[O-])cc(S(=O)(=O)[O-])c56)c(C)c4)cc3C)cc2)cc1.[Na+].[Na+]	−5.55
COc1cc(-c2ccc(N=Nc3c(S(=O)(=O)[O-])cc4cc(S(=O)(=O)[O-])cc(N)c4c3O)c(OC)c2)ccc1N=Nc1c(S(=O)(=O)[O-])cc2cc(S(=O)(=O)[O-])cc(N)c2c1O.[Na+].[Na+].[Na+].[Na+]	−5.86
O.O=C([O-])c1ccccc1-c1c2cc(I)c(=O)c(I)c-2oc2c(I)c([O-])c(I)cc12.[Na+].[Na+] [Erythrosin B (FD&C red 3), Erythrosin B, reference compound]	−5.72

---

# assay-system: mouse CD40/CD154 (mCD40:mCD154) (Mus musculus, UniProt P27548)
# Construct: (FLAG-tagged) mCD154 (recombinant mouse CD40L, soluble, Alexis Biochemicals); purchased R&D Systems (mCD40/Fc); Alexis Biochemicals (mCD154)
# Sequence (P27548 112-260 limits assumed): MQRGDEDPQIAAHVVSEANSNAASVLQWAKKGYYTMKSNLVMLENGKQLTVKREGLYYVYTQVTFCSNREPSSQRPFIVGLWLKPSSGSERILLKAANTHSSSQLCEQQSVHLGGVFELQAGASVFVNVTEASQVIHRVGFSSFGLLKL
# experimental-protocol: Murine CD40/CD154 binding inhibition assay
# test-settings: log of IC50, cell-free binding
Each record here notes measured Mouse CD40/CD154 log IC50.

molecule	reading-qualifier	Mouse CD40/CD154 log IC50
O=S(=O)([O-])c1cc(S(=O)(=O)[O-])c2c(N=Nc3ccc(N=Nc4ccccc4)cc3)c(O)ccc2c1.[Na+].[Na+] [Brilliant crocein (crocein scarlet MOO), Brilliant crocein, reference compound]	=	−3.55
O=C([O-])C1=NN(c2ccc(S(=O)(=O)[O-])cc2)C(=O)C1N=Nc1ccc(S(=O)(=O)[O-])cc1.[Na+].[Na+].[Na+] (stereo not drawn) [Tartrazine (FD&C yellow 5), Tartrazine, reference compound]	>	−3.0
O=C(Nc1ccc2c(O)c(N=Nc3ccc(N=Nc4ccc(S(=O)(=O)[O-])cc4)cc3S(=O)(=O)[O-])c(S(=O)(=O)[O-])cc2c1)Nc1ccc2c(O)c(N=Nc3ccc(N=Nc4ccc(S(=O)(=O)[O-])cc4)cc3S(=O)(=O)[O-])c(S(=O)(=O)[O-])cc2c1.[Na+].[Na+].[Na+].[Na+].[Na+].[Na+]	=	−5.23

---

Each record here notes measured pIC50.
# assay-system: human CD40/CD154 (Homo sapiens, UniProt P29965)
# Construct: CD154 (soluble human, FLAG-tagged, recombinant from Alexis Biochemicals; MW=18 kDa); purchased Alexis Biochemicals
# experimental-protocol: Human CD40/CD154 binding inhibition assay (cell-free, plate-based)
# test-settings: cell-free binding; read-out: Human CD40/CD154 IC50
pIC50: −log10 of the molar value.
observation-type: pIC50

structure-as-smiles	data-value
Nc1cc(N)c(N=Nc2cccc3c(S(=O)(=O)O)cccc23)cc1N=Nc1cc([N+](=O)[O-])ccc1O.[Na]	6.15
Nc1ccc2c(O)c(N=Nc3ccc(N=Nc4ccc(N=Nc5cc(S(=O)(=O)[O-])c6cccc(S(=O)(=O)[O-])c6c5)c5ccccc45)c4ccc(S(=O)(=O)[O-])cc34)c(S(=O)(=O)[O-])cc2c1.[Na+].[Na+].[Na+].[Na+]	5.68
Cc1cc(S(=O)(=O)[O-])ccc1N=Nc1ccc(N=Nc2c(O)ccc3cccc(S(=O)(=O)[O-])c23)c(C)c1.[Na+].[Na+]	5.26
O=C(Nc1ccc(C(=O)Nc2ccc(C(=O)Nc3ccc(S(=O)(=O)O)c4cc(S(=O)(=O)O)cc(S(=O)(=O)O)c34)cc2)cc1)Nc1ccc(C(=O)Nc2ccc(C(=O)Nc3ccc(S(=O)(=O)O)c4cc(S(=O)(=O)O)cc(S(=O)(=O)O)c34)cc2)cc1	5.33

---

# assay-system: human CD40/CD154 (Homo sapiens, UniProt P29965)
# Construct: CD154 (soluble human, FLAG-tagged, recombinant from Alexis Biochemicals; MW=18 kDa); purchased Alexis Biochemicals
# experimental-protocol: Human CD40/CD154 binding inhibition assay (cell-free, plate-based)
# test-settings: log of IC50, cell-free binding
Each record here notes measured Human CD40/CD154 log IC50.
observation-type: Human CD40/CD154 log IC50

molecule	data-value
Cc1cc(S(=O)(=O)[O-])ccc1N=Nc1ccc(N=Nc2c(O)ccc3cccc(S(=O)(=O)[O-])c23)c(C)c1.[Na+].[Na+] [Crocein scarlet 7B, crocein scarlet 7B]	−5.26
Nc1cc(N)c(N=Nc2cccc3c(S(=O)(=O)O)cccc23)cc1N=Nc1cc([N+](=O)[O-])ccc1O.[Na] [Mordant brown 1, mordant brown 1]	−6.18
O=S(=O)([O-])c1cccc(N=Nc2ccc(N=Nc3ccc(Nc4ccccc4)c4c(S(=O)(=O)[O-])cccc34)c3ccccc23)c1.[Na+].[Na+] [Acid blue 113, acid blue 113]	−5.95
Nc1c(N=Nc2cccc([N+](=O)[O-])c2)c(S(=O)(=O)[O-])cc2cc(S(=O)(=O)[O-])c(N=Nc3ccccc3)c(O)c12.[Na+].[Na+] [Acid blue 29, acid blue 29]	−4.52

---

# assay-system: mouse CD40/CD154 (mCD40:mCD154) (Mus musculus)
# Construct: (FLAG-tagged) mCD154 (recombinant mouse CD40L, soluble, Alexis Biochemicals); purchased R&D Systems (mCD40/Fc); Alexis Biochemicals (mCD154)
# experimental-protocol: Murine CD40/CD154 binding inhibition assay
# test-settings: cell-free binding; read-out: Mouse CD40/CD154 IC50
pIC50: −log10 of the molar value.
Each record here notes measured pIC50.
observation-type: pIC50

compound	data-value
O.O=C([O-])c1ccccc1-c1c2cc(I)c(=O)c(I)c-2oc2c(I)c([O-])c(I)cc12.[Na+].[Na+] [Erythrosin B (FD&C red 3), Erythrosin B, reference compound]	5.23
O=C(Nc1ccc2c(O)c(N=Nc3ccc(N=Nc4ccc(S(=O)(=O)[O-])cc4)cc3)c(S(=O)(=O)[O-])cc2c1)c1ccccc1.[Na+].[Na+]	4.47
O=S(=O)([O-])c1cc(S(=O)(=O)[O-])c2c(N=Nc3ccc(N=Nc4ccccc4)cc3)c(O)ccc2c1.[Na+].[Na+] [Brilliant crocein (crocein scarlet MOO), Brilliant crocein, reference compound]	3.55
O=C(Nc1ccc(C(=O)Nc2ccc(C(=O)Nc3ccc(S(=O)(=O)O)c4cc(S(=O)(=O)O)cc(S(=O)(=O)O)c34)cc2)cc1)Nc1ccc(C(=O)Nc2ccc(C(=O)Nc3ccc(S(=O)(=O)O)c4cc(S(=O)(=O)O)cc(S(=O)(=O)O)c34)cc2)cc1	5.64
